meta.source: ChEMBL document CHEMBL1800057

Target: Cytochrome P450 2C9 (Homo sapiens)
Sequence (P11712 whole entry): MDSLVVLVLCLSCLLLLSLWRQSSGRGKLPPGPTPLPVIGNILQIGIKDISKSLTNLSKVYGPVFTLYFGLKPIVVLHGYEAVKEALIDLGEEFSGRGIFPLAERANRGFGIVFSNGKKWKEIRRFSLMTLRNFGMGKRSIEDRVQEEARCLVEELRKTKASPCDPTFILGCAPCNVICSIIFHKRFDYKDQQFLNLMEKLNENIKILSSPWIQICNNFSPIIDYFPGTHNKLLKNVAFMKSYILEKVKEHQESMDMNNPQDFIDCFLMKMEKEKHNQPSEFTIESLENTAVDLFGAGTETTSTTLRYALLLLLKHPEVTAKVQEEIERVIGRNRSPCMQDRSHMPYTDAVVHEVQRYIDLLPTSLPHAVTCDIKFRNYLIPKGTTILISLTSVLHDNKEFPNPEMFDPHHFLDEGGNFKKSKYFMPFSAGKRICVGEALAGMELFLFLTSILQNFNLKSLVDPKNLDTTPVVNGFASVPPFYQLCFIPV
Assay: Inhibition of human CYP2C9
measure: pEC50
Lab note: report pEC50 as minus log10 of the concentration in molar units, number only.

smilesEntry: CC(C)Cc1nc2nccnc2n1Cc1cc(=O)[nH]c2c(F)c(F)ccc12
pEC50: 4.54

Next, consider the following compound.
Consider the compound shown here: `O=c1cc(Cn2c(C3CC(F)(F)C3)nc3nccnc32)c2cccc(F)c2[nH]1` What is its recorded pEC50? 4.66

====

Molecular target: Nitric oxide synthase, inducible (Mus musculus, UniProt P29477)
Sequence (P29477 whole entry): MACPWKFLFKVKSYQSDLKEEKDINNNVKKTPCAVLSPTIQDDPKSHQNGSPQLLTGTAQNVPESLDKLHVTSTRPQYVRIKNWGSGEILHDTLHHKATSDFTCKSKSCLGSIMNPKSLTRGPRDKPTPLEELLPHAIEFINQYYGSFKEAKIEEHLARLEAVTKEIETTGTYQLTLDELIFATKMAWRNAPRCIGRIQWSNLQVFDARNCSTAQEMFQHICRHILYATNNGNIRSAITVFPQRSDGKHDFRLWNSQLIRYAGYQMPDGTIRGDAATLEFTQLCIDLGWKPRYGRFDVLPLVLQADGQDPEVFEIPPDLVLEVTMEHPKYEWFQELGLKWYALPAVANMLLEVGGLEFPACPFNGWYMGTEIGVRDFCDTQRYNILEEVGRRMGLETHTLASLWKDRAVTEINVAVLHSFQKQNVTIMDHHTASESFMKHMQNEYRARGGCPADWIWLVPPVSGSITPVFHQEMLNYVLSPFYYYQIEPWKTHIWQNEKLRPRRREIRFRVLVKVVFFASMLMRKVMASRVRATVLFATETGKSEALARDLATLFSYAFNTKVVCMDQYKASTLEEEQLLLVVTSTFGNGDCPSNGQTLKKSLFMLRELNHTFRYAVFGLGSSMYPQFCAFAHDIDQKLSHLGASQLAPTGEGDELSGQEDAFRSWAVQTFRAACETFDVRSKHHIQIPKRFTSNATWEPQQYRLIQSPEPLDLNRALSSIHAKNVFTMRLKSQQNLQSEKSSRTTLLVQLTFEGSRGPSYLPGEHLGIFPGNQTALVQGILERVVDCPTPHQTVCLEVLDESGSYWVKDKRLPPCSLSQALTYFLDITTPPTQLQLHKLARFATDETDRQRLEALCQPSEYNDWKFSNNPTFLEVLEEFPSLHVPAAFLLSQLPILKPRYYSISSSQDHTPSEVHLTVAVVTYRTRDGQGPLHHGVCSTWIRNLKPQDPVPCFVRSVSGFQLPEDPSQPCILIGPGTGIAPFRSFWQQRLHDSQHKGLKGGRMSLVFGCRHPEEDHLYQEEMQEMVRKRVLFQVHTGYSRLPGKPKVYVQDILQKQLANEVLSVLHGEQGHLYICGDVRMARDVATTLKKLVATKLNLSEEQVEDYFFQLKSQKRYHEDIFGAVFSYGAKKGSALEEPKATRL
Assay: Inhibition of mouse iNOS expressed in HEK293 cells assessed as inhibition of nitric oxide production after 18 hrs using 2,3-diaminonaphthalene by fluorescence assay
Recorded EC50 values for a group of compounds are listed next.
Give the value; after it, write the unit.

# count of solved cases: 3
smilesEntry: Cc1ncsc1-c1nc2ccccc2n1Cc1cc(=O)[nH]c2c(F)c(F)ccc12
systemName: Nitric oxide synthase, inducible (Mus musculus, UniProt P29477)
EC50: 10300 nM

smilesEntry: CC(C)Cc1nc2ccccc2n1Cc1cc(=O)[nH]c2c(F)c(F)ccc12
systemName: Nitric oxide synthase, inducible (Mus musculus, UniProt P29477)
EC50: 3100 nM

smilesEntry: O=c1cc(Cn2c(C3CCC3)nc3nccnc32)c2cccc(F)c2[nH]1
systemName: Nitric oxide synthase, inducible (Mus musculus, UniProt P29477)
EC50: 1300 nM

Alright, here's another compound for you.
If you can, please state the reported EC50 value of `CC(C)Cc1nc2nccnc2n1Cc1cc(=O)[nH]c2c(F)c(F)ccc12` . 440 nM

====

Test system: Liver
Assay: Half life in mouse liver microsomes assessed as formation of oxidation product and glucuronide conjugate
Assay type: ADME, Microsome
The entries below are paired with their reported t1/2.

Observe how each entry below is paired with its result.
smilesEntry: O=c1cc(Cn2c(-c3cncs3)nc3ccccc32)c2ccc(F)c(F)c2[nH]1
systemName: Liver
result: 0.717 h
//
smilesEntry: O=c1cc(Cn2c(C3CCC3)nc3ncccc32)c2ccc(F)c(F)c2[nH]1
systemName: Liver
result: > 2 h
//
smilesEntry: COc1ccnc2c1nc(C1CCC1)n2Cc1cc(=O)[nH]c2c(F)c(F)ccc12
systemName: Liver
result: > 2 h
//
smilesEntry: Cc1ccncc1-c1nc2ccccc2n1Cc1cc(=O)[nH]c2c(F)c(F)ccc12
systemName: Liver
result: > 2 h
//
smilesEntry: O=c1cc(Cn2c(C3CC(F)(F)C3)nc3nccnc32)c2ccc(F)c(F)c2[nH]1
systemName: Liver
result: > 2 h
//
smilesEntry: CC(C)c1nc2ccccc2n1Cc1cc(=O)[nH]c2c(F)c(F)ccc12
systemName: Liver
result: > 2 h

Could you now look at the following molecule, please?
Which measured t1/2 value corresponds to `O=c1cc(Cn2c(C3CCCC3)nc3ccccc32)c2ccc(F)c(F)c2[nH]1` ? > 2 h

====

Assay: Plasma clearance in mouse
Assay type: ADME, organism-based
measure: clearance

Entry under review: `Cc1ncsc1C(=O)N(Cc1cc(=O)[nH]c2c(F)cccc12)c1cccc(Cl)c1` . Reported clearance? > 100 mL/min/kg

====

Measured pEC50 values are reported for all entries that follow.
Molecular target: Nitric oxide synthase 3 (Homo sapiens)
Sequence (P29474 whole entry): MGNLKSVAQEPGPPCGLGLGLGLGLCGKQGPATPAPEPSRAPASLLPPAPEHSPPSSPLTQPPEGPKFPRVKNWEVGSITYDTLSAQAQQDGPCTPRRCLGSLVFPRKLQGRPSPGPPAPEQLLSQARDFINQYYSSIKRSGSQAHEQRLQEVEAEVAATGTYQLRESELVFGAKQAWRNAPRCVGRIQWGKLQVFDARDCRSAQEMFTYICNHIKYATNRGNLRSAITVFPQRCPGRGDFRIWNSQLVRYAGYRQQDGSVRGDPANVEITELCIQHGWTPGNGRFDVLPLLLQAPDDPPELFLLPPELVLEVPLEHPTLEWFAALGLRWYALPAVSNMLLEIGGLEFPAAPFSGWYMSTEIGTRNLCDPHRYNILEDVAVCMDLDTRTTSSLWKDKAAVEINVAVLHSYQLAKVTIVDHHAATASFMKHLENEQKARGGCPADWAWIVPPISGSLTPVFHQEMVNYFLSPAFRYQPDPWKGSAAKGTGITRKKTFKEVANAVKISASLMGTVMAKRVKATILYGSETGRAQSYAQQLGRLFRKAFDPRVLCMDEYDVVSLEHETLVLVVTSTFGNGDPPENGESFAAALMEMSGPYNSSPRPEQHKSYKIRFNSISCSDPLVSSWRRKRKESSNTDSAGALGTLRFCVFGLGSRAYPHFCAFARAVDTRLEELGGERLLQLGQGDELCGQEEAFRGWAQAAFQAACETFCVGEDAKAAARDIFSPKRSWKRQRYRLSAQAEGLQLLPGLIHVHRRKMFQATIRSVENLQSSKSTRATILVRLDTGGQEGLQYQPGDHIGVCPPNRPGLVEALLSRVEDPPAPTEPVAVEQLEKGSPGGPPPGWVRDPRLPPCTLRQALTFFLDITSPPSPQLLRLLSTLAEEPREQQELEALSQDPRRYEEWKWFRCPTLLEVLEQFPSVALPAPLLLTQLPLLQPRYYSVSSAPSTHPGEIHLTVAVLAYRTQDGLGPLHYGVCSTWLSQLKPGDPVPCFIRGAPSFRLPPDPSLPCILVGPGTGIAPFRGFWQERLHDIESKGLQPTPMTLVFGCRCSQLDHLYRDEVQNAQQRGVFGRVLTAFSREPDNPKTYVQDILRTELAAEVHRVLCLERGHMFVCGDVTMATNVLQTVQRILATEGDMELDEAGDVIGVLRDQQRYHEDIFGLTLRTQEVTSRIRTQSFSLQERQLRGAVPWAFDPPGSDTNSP
Assay: Inhibition of human eNOS expressed in HEK293 cells assessed as inhibition A23187 induced nitric oxide production incubated for 24 hrs measured after 18 hrs of […] challenge using 2,3-diaminonaphthalene by fluorescence assay
Give only the number. pEC50 is defined as minus log10 of concentration in molar units.

smilesEntry: O=c1cc(Cn2c(-c3ccncc3)nc3ccccc32)c2ccc(F)c(F)c2[nH]1
pEC50: 5.38
--
smilesEntry: O=c1cc(Cn2c(C3CCC3)nc3ncccc32)c2ccc(F)c(F)c2[nH]1
pEC50: 5.06
--
smilesEntry: Cc1ncsc1-c1nc2ccccc2n1Cc1cc(=O)[nH]c2c(F)c(F)ccc12
pEC50: 5.17
--
smilesEntry: O=c1cc(Cn2c(CC3CC3)nc3ccccc32)c2ccc(F)c(F)c2[nH]1
pEC50: 5.41

Note: attention shifts to another entry.
Consider the compound shown here: `O=c1cc(Cn2c(C3CCC3)nc3cnccc32)c2ccc(F)c(F)c2[nH]1` What is its recorded pEC50? 4.68
